# Method Summary: Equilibrium (intrinsic) solubility of the test article in formulation mixtures, 24h, LC/MS
# Test Settings: 30% Capryol 90 in normal saline, aqueous with cosolvent or surfactant or cyclodextrin, thermodynamic from solid
Readout Type: solubility at 24 h (µM)
Numeric answer only, unit µM assumed.

Recorded result, C=C(NC(=O)C(=C)NC(=O)c1csc(C2=N[C@@H]3c4csc(n4)[C@H]4NC(=O)c5csc(n5)[C@H]([C@](C)(O)[C@@H](C)O)NC(=O)[C@H]5CSC(=N5)/C(=C/C)NC(=O)[C@H]([C@@H](C)O)NC(=O)c5csc(n5)[C@]3(CC2)NC(=O)[C@H](C)NC(=O)C(=C)NC(=O)[C@H](C)NC(=O)[C@H]([C@@H](C)CC)N[C@@H]2C=Cc3c([C@H](C)O)cc(nc3[C@H]2O)C(=O)O[C@@H]4C)n1)C(N)=O [TS, Thiostrepton] , solubility at 24 h: 1470

----------
# Method Summary: physchem
# Test Settings: 5% VitE-TPGS in normal saline, aqueous with cosolvent or surfactant or cyclodextrin, thermodynamic from solid
Readout Type: solubility at 24 h (µM)
Numeric answer only, unit µM assumed.

Recorded result, C=C(NC(=O)C(=C)NC(=O)c1csc(C2=N[C@@H]3c4csc(n4)[C@H]4NC(=O)c5csc(n5)[C@H]([C@](C)(O)[C@@H](C)O)NC(=O)[C@H]5CSC(=N5)/C(=C/C)NC(=O)[C@H]([C@@H](C)O)NC(=O)c5csc(n5)[C@]3(CC2)NC(=O)[C@H](C)NC(=O)C(=C)NC(=O)[C@H](C)NC(=O)[C@H]([C@@H](C)CC)N[C@@H]2C=Cc3c([C@H](C)O)cc(nc3[C@H]2O)C(=O)O[C@@H]4C)n1)C(N)=O , solubility at 24 h: 1740

----------
# Method Summary: Equilibrium (intrinsic) solubility of the test article in formulation mixtures, 24h, LC/MS
# Test Settings: 20% poloxamer 188 in normal saline, aqueous with cosolvent or surfactant or cyclodextrin, thermodynamic from solid
Readout Type: solubility at 24 h
Answer as a quantity: numeral, then unit.

Recorded result, C=C(NC(=O)C(=C)NC(=O)c1csc(C2=N[C@@H]3c4csc(n4)[C@H]4NC(=O)c5csc(n5)[C@H]([C@](C)(O)[C@@H](C)O)NC(=O)[C@H]5CSC(=N5)/C(=C/C)NC(=O)[C@H]([C@@H](C)O)NC(=O)c5csc(n5)[C@]3(CC2)NC(=O)[C@H](C)NC(=O)C(=C)NC(=O)[C@H](C)NC(=O)[C@H]([C@@H](C)CC)N[C@@H]2C=Cc3c([C@H](C)O)cc(nc3[C@H]2O)C(=O)O[C@@H]4C)n1)C(N)=O [TS, Thiostrepton] , solubility at 24 h: 210 µM

----------
# Method Summary: Equilibrium (intrinsic) solubility of the test article in formulation mixtures, 24h, LC/MS
# Test Settings: 20% Labrafil 1944CS in normal saline, aqueous with cosolvent or surfactant or cyclodextrin, thermodynamic from solid
Readout Type: solubility at 24 h (µM)
Numeric answer only, unit µM assumed.

Recorded result, C=C(NC(=O)C(=C)NC(=O)c1csc(C2=N[C@@H]3c4csc(n4)[C@H]4NC(=O)c5csc(n5)[C@H]([C@](C)(O)[C@@H](C)O)NC(=O)[C@H]5CSC(=N5)/C(=C/C)NC(=O)[C@H]([C@@H](C)O)NC(=O)c5csc(n5)[C@]3(CC2)NC(=O)[C@H](C)NC(=O)C(=C)NC(=O)[C@H](C)NC(=O)[C@H]([C@@H](C)CC)N[C@@H]2C=Cc3c([C@H](C)O)cc(nc3[C@H]2O)C(=O)O[C@@H]4C)n1)C(N)=O , solubility at 24 h: 490
